Hello, the source for this data is patent US12714696B2, in case you need it.

assay: Pharmacokinetics after repeated oral administration of 35 μg/kg of fluralaner in dogs after feeding; assay type: in vivo, beagle dogs; details: beagle, dog, plasma, po, 35 ug/kg, oral 35 μg/kg Days 0-3, dogs, n=6; read-out: Cmax, GeoMean
Property Measured: Cmax (ng/mL)

INSERT INTO results (compound, quantity_unit, value) VALUES
  ('Cc1cc(C2=NOC(c3cc(Cl)cc(Cl)c3)(C(F)(F)F)C2)ccc1C(=O)NCC(=O)NCC(F)(F)F (stereo not shown)', 'ng/mL', 84);

====

Assay: Pharmacokinetics after repeated oral administration of 35 μg/kg of fluralaner in dogs after feeding
Format: in vivo, beagle dogs
Conditions: beagle, dog, plasma, po, 35 μg/kg, 96 h; oral 35 μg/kg Days 0-3, dogs, n=6; read-out: fluralaner concentration levels, GeoMean
Experimental: The first objective of the study was to obtain the pharmacokinetic parameters after repeated oral administration of 35 μg/kg of fluralaner in dogs, 30 to 35 minutes after feeding. […] On Days 0, 1, 2 and 3, all dogs assigned to group 2 received the Investigational Veterinary Product. […] The quantity of Investigational Veterinary Product and control product administered was calculated according to the dog's individual body weight measured on Day −1. […]
Property Measured: concentration at 96 h (µg/mL)

INSERT INTO measurements (compound, property_measured, quantity_unit, value) VALUES
  ('Cc1cc(C2=NOC(c3cc(Cl)cc(Cl)c3)(C(F)(F)F)C2)ccc1C(=O)NCC(=O)NCC(F)(F)F (stereo not shown)', 'concentration at 96 h', 'µg/mL', 0.084);

====

assay: Pharmacokinetics after repeated oral administration of 250 μg/kg and 35 μg/kg of fluralaner in dogs after feeding; type: in vivo, beagle dogs; conditions: beagle, dog, plasma, po, 192 h; oral 250/35/600 μg/kg regimen, dogs, n=6; read-out: fluralaner concentration levels, Maximum
Property Measured: concentration at 192 h (ng/mL)

INSERT INTO assay_data (compound, property_measured, value) VALUES
  ('Cc1cc(C2=NOC(c3cc(Cl)cc(Cl)c3)(C(F)(F)F)C2)ccc1C(=O)NCC(=O)NCC(F)(F)F (stereo not shown) [fluralaner, Fluralaner]', 'concentration at 192 h', 558);

====

test: Pharmacokinetics after repeated oral administration of 35 μg/kg of fluralaner in dogs after feeding; type: in vivo, beagle dogs; settings: beagle, dog, plasma, po, 35 μg/kg, 240 h; oral 35 μg/kg Days 0-3, dogs; read-out: fluralaner concentration levels, individual animal
Property Measured: concentration at 240 h (µg/mL)

INSERT INTO measurements (molecule, property_measured, value) VALUES
  ('Cc1cc(C2=NOC(c3cc(Cl)cc(Cl)c3)(C(F)(F)F)C2)ccc1C(=O)NCC(=O)NCC(F)(F)F (stereo not shown)', 'concentration at 240 h', 0.0549);

====

test: Pharmacokinetics after repeated oral administration of 250 μg/kg and 35 μg/kg of fluralaner in dogs after feeding; format: in vivo, beagle dogs; settings: beagle, dog, plasma, po, 144 h; oral 250/35/600 μg/kg regimen, dogs, n=6; read-out: fluralaner concentration levels, GeoMean
Property Measured: concentration at 144 h

INSERT INTO assay_data (compound, value) VALUES
  ('Cc1cc(C2=NOC(c3cc(Cl)cc(Cl)c3)(C(F)(F)F)C2)ccc1C(=O)NCC(=O)NCC(F)(F)F (stereo not shown) [fluralaner, Fluralaner]', '491 ng/mL');

====

assay: Pharmacokinetics after repeated oral administration of 250 μg/kg and 35 μg/kg of fluralaner in dogs after feeding; format: in vivo, beagle dogs; conditions: beagle, dog, plasma, po, 528 h; oral 250/35/600 μg/kg regimen, dogs, n=6; read-out: fluralaner concentration levels, Minimum
Property Measured: concentration at 528 h (ng/mL)

INSERT INTO measurements (compound, quantity_unit, value) VALUES
  ('Cc1cc(C2=NOC(c3cc(Cl)cc(Cl)c3)(C(F)(F)F)C2)ccc1C(=O)NCC(=O)NCC(F)(F)F (stereo not shown)', 'ng/mL', 235);

====

Assay: Pharmacokinetics after repeated oral administration of 250 μg/kg and 35 μg/kg of fluralaner in dogs after feeding
Type: in vivo, beagle dogs
Conditions: beagle, dog, plasma, po, 24 h; oral 250/35/600 μg/kg regimen, dogs, n=6; read-out: fluralaner concentration levels, Maximum
Procedure: The first objective is to obtain the pharmacokinetic parameters after repeated oral administration of […] and 35 μg/kg of fluralaner in dogs after feeding. […] On Days 0, 1, 2 and 3, all dogs assigned to group 2 received the Investigational Veterinary Product. […] The quantity of Investigational Veterinary Product and control product administered was calculated according to the dog's individual body weight measured on Day −1. […] Cmax the observed maximum concentration in plasma measured after dosing. […]
Property Measured: concentration at 24 h (ng/mL)

INSERT INTO results (compound, property_measured, value) VALUES
  ('Cc1cc(C2=NOC(c3cc(Cl)cc(Cl)c3)(C(F)(F)F)C2)ccc1C(=O)NCC(=O)NCC(F)(F)F (stereo not shown)', 'concentration at 24 h', 160);

====

experiment: Pharmacokinetics after repeated oral administration of 250 μg/kg and 35 μg/kg of fluralaner in dogs after feeding; type: in vivo, beagle dogs; details: beagle, dog, plasma, po, 192 h; oral 250/35/600 μg/kg regimen, dogs, n=6; read-out: fluralaner concentration levels, Minimum
Property Measured: concentration at 192 h (ng/mL)

INSERT INTO assay_data (compound, value) VALUES
  ('Cc1cc(C2=NOC(c3cc(Cl)cc(Cl)c3)(C(F)(F)F)C2)ccc1C(=O)NCC(=O)NCC(F)(F)F (stereo not shown)', 455);

====

experiment: Pharmacokinetic profile of Bravecto spot-on after single topical administration on dogs; conditions: dog, in vivo, topical or ocular, 6250 ug/kg, Bravecto spot-on single topical 6250 μg/kg, dogs without 86D 6FA, n=5; read-out: fluralaner t½ (terminal half-life), Mean (converted)
Property Measured: half-life

INSERT INTO results (compound, property_measured, value) VALUES
  ('Cc1cc(C2=NOC(c3cc(Cl)cc(Cl)c3)(C(F)(F)F)C2)ccc1C(=O)NCC(=O)NCC(F)(F)F (stereo not shown)', 'half-life', '16.2 days');

====

Assay: Pharmacokinetics after repeated oral administration of 35 μg/kg of fluralaner in dogs after feeding
Format: in vivo, beagle dogs
Conditions: beagle, dog, plasma, po, 35 μg/kg, 48 h; oral 35 μg/kg Days 0-3, dogs; read-out: fluralaner concentration levels, individual animal
Procedure: The first objective of the study was to obtain the pharmacokinetic parameters after repeated oral administration of 35 μg/kg of fluralaner in dogs, 30 to 35 minutes after feeding. […] On Days 0, 1, 2 and 3, all dogs assigned to group 2 received the Investigational Veterinary Product. […] The quantity of Investigational Veterinary Product and control product administered was calculated according to the dog's individual body weight measured on Day −1. […]
Property Measured: concentration at 48 h

INSERT INTO measurements (compound, value) VALUES
  ('Cc1cc(C2=NOC(c3cc(Cl)cc(Cl)c3)(C(F)(F)F)C2)ccc1C(=O)NCC(=O)NCC(F)(F)F (stereo not shown)', '26.1 ng/mL');

====

experiment: Pharmacokinetics after repeated oral administration of 35 μg/kg of fluralaner in dogs after feeding; assay type: in vivo, beagle dogs; conditions: beagle, dog, plasma, po, 35 ug/kg, oral 35 μg/kg Days 0-3, dogs, n=6; read-out: AUC 0-t, Median
Property Measured: AUC(0-t) (ng·h/mL)

INSERT INTO results (compound, value) VALUES
  ('Cc1cc(C2=NOC(c3cc(Cl)cc(Cl)c3)(C(F)(F)F)C2)ccc1C(=O)NCC(=O)NCC(F)(F)F (stereo not shown) [fluralaner, Fluralaner]', 24000);

====

experiment: Pharmacokinetics after repeated oral administration of 250 μg/kg and 35 μg/kg of fluralaner in dogs after feeding; format: in vivo, beagle dogs; conditions: beagle, dog, plasma, po, 192 h; oral 250/35/600 μg/kg regimen, dogs, n=6; read-out: fluralaner concentration levels, Mean
Property Measured: concentration at 192 h (ng/mL)

INSERT INTO assay_data (compound, quantity_unit, value) VALUES
  ('Cc1cc(C2=NOC(c3cc(Cl)cc(Cl)c3)(C(F)(F)F)C2)ccc1C(=O)NCC(=O)NCC(F)(F)F (stereo not shown) [fluralaner, Fluralaner]', 'ng/mL', 509);

====

assay: Pharmacokinetics after repeated oral administration of 250 μg/kg and 35 μg/kg of fluralaner in dogs after feeding; format: in vivo, beagle dogs; conditions: beagle, dog, plasma, po, 72 h; oral 250/35/600 μg/kg regimen, dogs, n=6; read-out: fluralaner concentration levels, Median
Property Measured: concentration at 72 h (ng/mL)

INSERT INTO measurements (compound, property_measured, quantity_unit, value) VALUES
  ('Cc1cc(C2=NOC(c3cc(Cl)cc(Cl)c3)(C(F)(F)F)C2)ccc1C(=O)NCC(=O)NCC(F)(F)F (stereo not shown)', 'concentration at 72 h', 'ng/mL', 376);
